experiment: IUF_NPC2-5_cytotoxicity_72hr: Cytotoxicity Assessment at 72 hours in the Leibniz Research Institute for Environmental Medicine (IUF) Neural Progenitor Cell Migration and Differentiation Assay for Cytotoxicity (NPC2-5) (AID 2284306);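 further: LDH release into supernatant measured by resorufin fluorescence marking membrane damage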
Results filed as inconclusive are left out. The source made the active and inactive calls. How the source made its calls: active means hit-call score of the fitted dose curve at least 0.9, where 1 is the maximum; inconclusive means response in the unintended direction; inactive means score below 0.9.
Can you answer with just one of these options? active, inactive

Example cases with answers are listed next.
| molecule | class name |
| --- | --- |
| CNC1(c2ccccc2Cl)CCCCC1=O (centres undefined) | inactive |
| [O-][Cl+3]([O-])([O-])O | inactive |
| CNC(=N[N+](=O)[O-])NCC1CCOC1 (centres undefined) | inactive |

Look up the recorded call for O=[As]O in this test.
inactive

Look up the recorded call for C[n+]1ccc(-c2ccccc2)cc1 in this test.
inactive

Look up the recorded call for CCOP(=O)(OCC)OC(Cl)C(Cl)(Cl)Cl (centres undefined) in this test.
inactive

Look up the recorded call for Brc1ccc(Oc2ccc(Br)cc2Br)c(Br)c1 in this test.
inactive

----------
target: human Acetylcholinesterase (AChE), ACHE (gene 43); test: NVS_ENZ_hAChE: NovaScreen (NVS) Enzymatic Assay for human Acetylcholinesterase (AChE) (AID 2283129)
Results filed as inconclusive are left out. Active and inactive are the calls of the source. The calls were made as follows: active = hit-call score of the fitted dose curve at least 0.9, where 1 is the maximum; inconclusive = response in the unintended direction; inactive = score below 0.9.
Can you answer with just one of these options? active, inactive

| molecule | class name |
| --- | --- |
| CCc1nc(N)nc(N)c1-c1ccc(Cl)cc1 | inactive |
| O=C1OC(c2ccc(O)cc2)(c2ccc(O)cc2)c2ccccc21 | inactive |

Here is the next item to consider.
Look up the recorded call for CCCCC(CC)COP(=O)(OCC(CC)CCCC)OCC(CC)CCCC (stereo not drawn) in this test.
active

----------
molecular target: Androgen receptor (Homo sapiens); assay: ATG_AR_TRANS: Attagene TRANS-FACTORIAL HepG2 Assay for human Androgen Receptor (AR) (AID 2282973); settings: HepG2 Attagene TRANS-FACTORIAL AR reporter transcription
Records with an inconclusive call do not appear. Active and inactive are the calls of the source. The calls were made as follows: active = hit-call score of the fitted dose curve at least 0.9, where 1 is the maximum; inconclusive = response in the unintended direction; inactive = score below 0.9.
Can you answer with just one of these options? active, inactive

Example cases with answers are listed next.
| line notation | class name |
| --- | --- |
| CCc1c(C)cc(N)c(CC)c1N | inactive |
| Cc1ccc(N(C)C)cc1 | inactive |
| O=C(O)C(F)(F)C(F)(F)C(F)(F)OC(F)(C(F)(F)F)C(F)(F)F | inactive |
| CC(C)(C)c1cc(O)c(C(C)(C)C)cc1O | inactive |
| C=CCOC(=O)/C=C\C(=O)OCC=C | inactive |

Look up the recorded call for CC1(C)[C@H](C=C(Cl)Cl)[C@H]1C(=O)OCc1cccc(Oc2ccccc2)c1 in this test.
inactive

Look up the recorded call for Cc1ccc(C)c2ccccc12 in this test.
inactive

Look up the recorded call for COc1cc(CCC(C)=O)ccc1O in this test.
inactive

Look up the recorded call for Cc1cc(O)c(C(C)(C)C)cc1C(C)(C)C in this test.
inactive

Look up the recorded call for CCCCCCCCCCCCCCCCCC[N+](C)(C)C in this test.
active

Look up the recorded call for NCCCN1CCN(CCCN)CC1 in this test.
inactive

Look up the recorded call for O=c1cc(-c2ccccc2)oc2cc(O)cc(O)c12 in this test.
inactive

Look up the recorded call for O=S(=O)(OCC(F)(F)F)C(F)(F)C(F)(F)C(F)(F)C(F)(F)F in this test.
inactive

----------
target: Cellular tumor antigen p53 (Homo sapiens) (UniProt P04637); test: TOX21_p53_BLA_p3_ratio: Tox21 HCT-116 p53 Agonism Beta-lactamase Assay, Ratio, Phase 3 (AID 2283596)
Sequence (P04637 whole entry, looked up): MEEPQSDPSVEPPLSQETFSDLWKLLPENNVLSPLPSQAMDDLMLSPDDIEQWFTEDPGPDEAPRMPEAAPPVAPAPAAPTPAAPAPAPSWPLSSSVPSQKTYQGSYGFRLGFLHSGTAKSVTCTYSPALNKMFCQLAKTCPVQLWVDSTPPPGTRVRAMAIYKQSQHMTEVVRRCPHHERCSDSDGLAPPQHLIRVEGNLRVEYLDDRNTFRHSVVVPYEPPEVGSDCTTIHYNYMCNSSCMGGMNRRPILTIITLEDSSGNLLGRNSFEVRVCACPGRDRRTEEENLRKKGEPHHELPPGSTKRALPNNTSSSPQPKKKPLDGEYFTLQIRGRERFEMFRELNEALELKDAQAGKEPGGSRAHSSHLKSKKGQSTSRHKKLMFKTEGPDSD
Records with an inconclusive call do not appear. The source made the active and inactive calls. Rule for the calls: active = hit-call score of the fitted dose curve at least 0.9, where 1 is the maximum; inconclusive = response in the unintended direction; inactive = score below 0.9.
Can you answer with just one of these options? active, inactive

Example cases with answers are listed next.
| molecule | class name |
| --- | --- |
| [N-]=[N+]=CC(=O)OC[C@H](N)C(=O)O | inactive |
| CC1CCCC1 | inactive |
| Cc1ccc2ccccc2c1 | inactive |

Look up the recorded call for CNC(=O)Oc1cc(C)c(N(C)C)c(C)c1 in this test.
inactive

Look up the recorded call for CC(C)NCC(O)c1ccc(N)c(C#N)c1 (stereo not given) in this test.
inactive

Look up the recorded call for Brc1ccc(Oc2cc(Br)c(Br)cc2Br)c(Br)c1 in this test.
inactive

Look up the recorded call for CC(=O)C=Cc1ccc2c(c1)OCO2 in this test.
active

Look up the recorded call for Oc1ccc(C2(c3ccc(O)cc3)c3ccccc3-c3ccccc32)cc1 in this test.
active

----------
assay: CCTE_Mundy_HCI_Cortical_NOG_BPCount: CCTE's Neurite Outgrowth Assay in rat cortical cells for Branch Point Count, Mundy Lab (AID 2284237)
Activity calls are given as the source filed them. The calls were made as follows: active = hit-call score of the fitted dose curve at least 0.9, where 1 is the maximum; inactive = score below 0.9.
Can you answer with just one of these options? yes (active), no (inactive)

Example cases with answers are listed next.
| compound | class name |
| --- | --- |
| Cn1nc(C(F)(F)F)c(CS(=O)(=O)C2=NOC(C)(C)C2)c1OC(F)F | yes |
| CC1(C)[C@H](C=C(Cl)Cl)[C@@H]1C(=O)O[C@@H](C#N)c1cccc(Oc2ccccc2)c1 | no |

Look up the recorded call for Brc1ccc(Oc2ccc(Br)cc2Br)c(Br)c1 in this test.
yes

----------
assay: ATG_CRE_CIS: Attagene CIS-FACTORIAL HepG2 Assay for human cAMP Responsive Element (CRE) binding protein 3 (AID 2282926); settings: HepG2 CRE cis-reporter, Attagene multiplexed mRNA; actives raise or lower the signal
Active and inactive are the calls of the source. The calls were made as follows: active = hit-call score of the fitted dose curve at least 0.9, where 1 is the maximum; inactive = score below 0.9.
Can you answer with just one of these options? label 1 for active, label 0 for inactive

Look up the recorded call for CCOC(=O)NC(=S)Nc1ccccc1NC(=S)NC(=O)OCC in this test.
label 0

----------
molecular target: Transcription factor Sp1 (Homo sapiens) (UniProt P08047); assay: ATG_Sp1_CIS: Attagene CIS-FACTORIAL HepG2 Assay for human Specificity Protein 1 (Sp1) (AID 2282961); details: HepG2 Sp1 cis-reporter transcription, actives raise or lower the signal
Sequence (P08047 whole entry, looked up): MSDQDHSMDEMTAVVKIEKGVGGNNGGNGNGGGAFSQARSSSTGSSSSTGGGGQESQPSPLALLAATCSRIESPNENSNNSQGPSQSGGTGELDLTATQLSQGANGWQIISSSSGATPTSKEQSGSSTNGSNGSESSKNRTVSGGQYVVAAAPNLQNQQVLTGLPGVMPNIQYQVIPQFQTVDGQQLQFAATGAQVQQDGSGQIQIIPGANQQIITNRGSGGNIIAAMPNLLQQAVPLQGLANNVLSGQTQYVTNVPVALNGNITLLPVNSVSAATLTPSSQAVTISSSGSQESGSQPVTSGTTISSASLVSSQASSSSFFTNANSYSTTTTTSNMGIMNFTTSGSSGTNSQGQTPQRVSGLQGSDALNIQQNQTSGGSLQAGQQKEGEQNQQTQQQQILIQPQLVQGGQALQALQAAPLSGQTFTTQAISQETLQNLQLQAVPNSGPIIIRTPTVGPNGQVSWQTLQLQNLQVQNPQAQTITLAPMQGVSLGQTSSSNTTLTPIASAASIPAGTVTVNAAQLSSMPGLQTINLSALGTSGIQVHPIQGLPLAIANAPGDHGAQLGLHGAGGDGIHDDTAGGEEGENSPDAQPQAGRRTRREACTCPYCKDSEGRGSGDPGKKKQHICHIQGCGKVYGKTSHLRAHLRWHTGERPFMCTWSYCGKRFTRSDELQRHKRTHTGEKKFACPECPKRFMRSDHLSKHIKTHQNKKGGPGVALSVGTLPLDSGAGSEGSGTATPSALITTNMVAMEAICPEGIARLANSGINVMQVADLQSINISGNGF
Activity calls are given as the source filed them. Rule for the calls: active = hit-call score of the fitted dose curve at least 0.9, where 1 is the maximum; inactive = score below 0.9.
Can you answer with just one of these options? active, inactive

Example cases with answers are listed next.
| compound | target of assay | class name |
| --- | --- | --- |
| CCOP(=O)(OCC)OCC | Transcription factor Sp1 (Homo sapiens) (UniProt P08047) | inactive |
| CCC(C)c1cc([N+](=O)[O-])cc([N+](=O)[O-])c1OC(=O)C=C(C)C (stereo not given) | Transcription factor Sp1 (Homo sapiens) (UniProt P08047) | active |
| COC(C)(C)CCC[C@H](C)C/C=C/C(C)=C/C(=O)OC(C)C | Transcription factor Sp1 (Homo sapiens) (UniProt P08047) | inactive |

Look up the recorded call for CCC[N+](=O)[O-] in this test.
inactive

Look up the recorded call for CN(C)CCC#N in this test.
inactive

Look up the recorded call for CCc1cccc(C)c1N(C(=O)CCl)[C@@H](C)COC in this test.
inactive

Look up the recorded call for CCNCC in this test.
inactive

Look up the recorded call for O=C(O)CCCc1ccc(N(CCCl)CCCl)cc1 in this test.
inactive

Look up the recorded call for CCOC(=O)N(C)N=O in this test.
inactive

Look up the recorded call for O=c1[nH]c(Cl)c(Cl)cc1Cl in this test.
inactive

Look up the recorded call for O=C(NC(=O)c1c(F)cccc1F)Nc1ccc(Oc2ccc(C(F)(F)F)cc2Cl)cc1F in this test.
inactive

Look up the recorded call for CC(C)C(=O)Cl in this test.
inactive

Look up the recorded call for [N-]=[N+]=CC(=O)OC[C@H](N)C(=O)O in this test.
inactive

Look up the recorded call for CCCCCCC1CCOC1=O (stereo not given) in this test.
inactive

Look up the recorded call for CC(C)c1ccc(O)cc1 in this test.
inactive

Look up the recorded call for Cc1cc(C)c(C2=C(OC(=O)CC(C)(C)C)C3(CCCC3)OC2=O)c(C)c1 in this test.
active

Look up the recorded call for O=C(O)c1cc[c]([Hg][Cl])cc1 in this test.
active

Look up the recorded call for COc1cc(OC)c(OC)cc1C=O in this test.
inactive

Look up the recorded call for O=[N+]([O-])c1cc(C(F)(F)F)c(Cl)c([N+](=O)[O-])c1Cl in this test.
active

Look up the recorded call for CC(C)CCCCCCCOP(=O)(Oc1ccccc1)Oc1ccccc1 in this test.
inactive

Look up the recorded call for CC1CCC(=O)O1 (stereo not given) in this test.
inactive

Look up the recorded call for COc1ncc(F)c2nc(S(=O)(=O)Nc3c(F)cccc3F)nn12 in this test.
inactive

Look up the recorded call for CN(C)N in this test.
inactive

Look up the recorded call for Oc1ccc(C2(c3ccc(O)cc3)c3ccccc3-c3ccccc32)cc1 in this test.
inactive

Look up the recorded call for CCC(C)(C)O in this test.
inactive
